target: purified DDK (Homo sapiens, UniProt O00311); construct: His6-Smt3 (SUMO) (N, cleaved yes); made in house; host or cells: E. coli BL21-RIPL (pKT37, pETDuet-1 vector); experiment: DDK thermal stability shift assay (TSA); assay type: binding; conditions: library screen, 20 µM compound
Sequence (O00311 whole entry): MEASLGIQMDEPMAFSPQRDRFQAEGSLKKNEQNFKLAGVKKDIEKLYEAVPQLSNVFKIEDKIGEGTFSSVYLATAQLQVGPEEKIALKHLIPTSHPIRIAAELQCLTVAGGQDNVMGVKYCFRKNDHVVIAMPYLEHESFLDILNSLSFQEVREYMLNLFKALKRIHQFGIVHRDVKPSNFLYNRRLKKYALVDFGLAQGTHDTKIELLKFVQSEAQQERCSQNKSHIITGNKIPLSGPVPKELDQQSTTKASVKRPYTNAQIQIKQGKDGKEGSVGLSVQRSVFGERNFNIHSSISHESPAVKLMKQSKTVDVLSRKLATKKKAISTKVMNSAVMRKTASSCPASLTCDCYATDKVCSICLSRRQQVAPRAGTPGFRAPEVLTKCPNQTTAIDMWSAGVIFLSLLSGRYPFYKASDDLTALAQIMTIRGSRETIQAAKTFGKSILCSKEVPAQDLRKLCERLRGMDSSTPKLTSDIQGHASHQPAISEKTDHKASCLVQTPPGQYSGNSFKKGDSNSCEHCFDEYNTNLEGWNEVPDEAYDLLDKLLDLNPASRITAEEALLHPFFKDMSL
Sequence (Q9UBU7 341-674 partner limits assumed): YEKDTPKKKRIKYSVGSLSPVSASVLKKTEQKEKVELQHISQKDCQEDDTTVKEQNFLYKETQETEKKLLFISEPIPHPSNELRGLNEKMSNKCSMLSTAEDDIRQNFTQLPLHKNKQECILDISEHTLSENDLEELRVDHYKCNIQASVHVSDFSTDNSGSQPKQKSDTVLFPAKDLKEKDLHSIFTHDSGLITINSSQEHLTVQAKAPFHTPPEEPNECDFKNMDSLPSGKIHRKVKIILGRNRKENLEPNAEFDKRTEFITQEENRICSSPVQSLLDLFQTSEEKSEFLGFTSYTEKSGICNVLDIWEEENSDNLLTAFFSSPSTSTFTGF
Under this convention, met denotes ΔTm at 20 µM strictly below 0.4 °C and not met denotes ΔTm at 20 µM at or above 0.4 °C.

molecule: CCN(CC)CCNC(=O)c1c(C)[nH]c(/C=C2\C(=O)Nc3ccc(Cl)cc32)c1C [SU11652]
target_system: purified DDK (Homo sapiens, UniProt O00311)
classification: not met

molecule: O=c1cc(N2CCOCC2)oc2c(-c3ccccc3)cccc12 [LY 294002]
target_system: purified DDK (Homo sapiens, UniProt O00311)
classification: not met

molecule: NC(=O)c1ccc(-c2nc(-c3ccc4c(c3)OCO4)c(-c3ccccn3)[nH]2)cc1 [SB 431542]
target_system: purified DDK (Homo sapiens, UniProt O00311)
classification: met

molecule: Cn1cnc2c(NCc3ccccc3)nc(NCCO)nc21 [Olomoucine]
target_system: purified DDK (Homo sapiens, UniProt O00311)
classification: met

molecule: O=C(O)c1ccc2c3c1cccc3c(=O)n1c3ccccc3nc21 [STO-609]
target_system: purified DDK (Homo sapiens, UniProt O00311)
classification: met

molecule: CC[C@H](CO)Nc1nc(NCc2ccccc2O)c2ncn(C(C)C)c2n1 [Olomoucine II]
target_system: purified DDK (Homo sapiens, UniProt O00311)
classification: met

molecule: O=c1cc(N2CCNCC2)oc2c(-c3ccccc3)cccc12 [LY 303511]
target_system: purified DDK (Homo sapiens, UniProt O00311)
classification: met

---

biological target: purified DDK (Homo sapiens); construct: His6-Smt3 (SUMO) (N, cleaved yes); made in house; host or cells: E. coli BL21-RIPL (pKT37, pETDuet-1 vector); assay: DDK thermal stability shift assay (TSA); assay type: binding; settings: library screen, 20 µM compound
Known ΔTm at 20 µM of a selection of molecules

molecule: Cc1[nH]c(/C=C2\C(=O)Nc3ccc(S(=O)(=O)Cc4c(Cl)cccc4Cl)cc32)c(C)c1C(=O)N1CCC[C@@H]1CN1CCCC1 [PHA 665752]
result_unit: °C
ΔTm at 20 µM: 0.4

molecule: CC(=O)c1c(O)c(C)c(O)c(Cc2c(O)c3c(c(C(=O)/C=C/c4ccccc4)c2O)OC(C)(C)C=C3)c1O [Ro]lerin]
result_unit: °C
ΔTm at 20 µM: 2.4

molecule: N#C/C(=C(\N)Sc1ccc(N)cc1)c1ccccc1C(F)(F)F [SL 327]
result_unit: °C
ΔTm at 20 µM: 0.5

molecule: CC(C)[C@H](CO)Nc1nc(Nc2cccc(Cl)c2)c2ncn(C(C)C)c2n1 [Purvalanol A]
result_unit: °C
ΔTm at 20 µM: 0.2

molecule: O=C1Nc2ccc3ncsc3c2/C1=C/c1cnc[nH]1 [PKR inhibitor]
result_unit: °C
ΔTm at 20 µM: 2.4

molecule: COc1ccc2c(c1)/C(=C/c1cnc[nH]1)C(=O)N2 [SU9516]
result_unit: °C
ΔTm at 20 µM: 0

molecule: O=C1Cc2c([nH]c3ccc([N+](=O)[O-])cc23)-c2ccccc2N1 [Alsterpaullone]
result_unit: °C
ΔTm at 20 µM: 0.5

molecule: c1nc2nc(Nc3ccc(N4CCOCC4)cc3)nc(NC3CCCCC3)c2[nH]1 [Reversine]
result_unit: °C
ΔTm at 20 µM: 1.4

All figures here come from paper PMC4239038.
